Where do these numbers come from? They come from ChEMBL document CHEMBL4725408.

# measurementProtocol: Volume of distribution at steady state in CD-1 mouse at 3 mg/kg, iv administered as 15 mins infusion by LC-MS/MS analysis
# Format: ADME, organism-based
# experimentalConditions: in vivo, read-out: Vdss
outcomeMeasure: Vd

1) C[C@@H]1CN2c3c(cc4c(N5C(=O)OC[C@@H]5C)noc4c3F)CC3(C(=O)NC(=O)NC3=O)[C@H]2[C@H](C)O1 :: 3 L/kg
2) COc1ncnn1-c1noc2c(F)c3c(cc12)CC1(C(=O)NC(=O)NC1=O)[C@H]1[C@H](C)O[C@H](C)CN31 :: 2.4 L/kg

====

# measurementProtocol: n-octanol/phosphate buffer partition coefficient, log D of the compound at pH 7.4 measured after 1 hr by UV-LC/MS based shake flask method
# Format: physicochemical
Below, each entry is listed alongside its reported logD at 1 h.
outcomeMeasure: logD at 1 h

1. C[C@@H]1CN2c3c(cc4c(-n5ncnc5[C@@H](C)O)noc4c3F)CC3(C(=O)NC(=O)NC3=O)[C@H]2[C@H](C)O1 :: 1.4
2. C[C@@H]1CN2c3c(cc4c(-n5cnc(C#N)n5)noc4c3F)CC3(C(=O)NC(=O)NC3=O)[C@H]2[C@H](C)O1 :: 2
3. COCCOc1ncnn1-c1noc2c(F)c3c(cc12)CC1(C(=O)NC(=O)NC1=O)[C@H]1[C@H](C)O[C@H](C)CN31 :: 1.7
4. C[C@@H]1CN2c3c(cc4c(-n5cc(C#N)cn5)noc4c3F)CC3(C(=O)NC(=O)NC3=O)[C@H]2[C@H](C)O1 :: 2.4
5. Cc1ncn(-c2noc3c(F)c4c(cc23)CC2(C(=O)NC(=O)NC2=O)[C@H]2[C@H](C)O[C@H](C)CN42)n1 :: 1.9
6. C[C@@H]1CN2c3c(cc4c(-n5cncn5)noc4c3Cl)CC3(C(=O)NC(=O)NC3=O)[C@H]2[C@H](C)O1 :: 2
7. C[C@@H]1CN2c3c(cc4c(-n5cccn5)noc4c3F)CC3(C(=O)NC(=O)NC3=O)[C@H]2[C@H](C)O1 (racemic) :: 3

====

# measurementProtocol: Unbound plasma clearance in Wistar Han rat at 3 mg/kg, iv administered as 15 mins infusion by LC-MS/MS analysis
# Type: ADME, organism-based
# Parameters: unit not given here
# experimentalConditions: in vivo, 0.25 h
Below, each entry is listed alongside its reported CL free.
outcomeMeasure: CL free

1. CNc1ncnn1-c1noc2c(F)c3c(cc12)CC1(C(=O)NC(=O)NC1=O)[C@H]1[C@H](C)O[C@H](C)CN31 :: 190
2. CCNc1ncnn1-c1noc2c(F)c3c(cc12)CC1(C(=O)NC(=O)NC1=O)[C@H]1[C@H](C)O[C@H](C)CN31 :: 130
3. COCc1ncnn1-c1noc2c(F)c3c(cc12)CC1(C(=O)NC(=O)NC1=O)[C@H]1[C@H](C)O[C@H](C)CN31 :: 120
4. COc1ncnn1-c1noc2c(F)c3c(cc12)CC1(C(=O)NC(=O)NC1=O)[C@H]1[C@H](C)O[C@H](C)CN31 :: 93
5. C[C@@H]1CN2c3c(cc4c(-n5cnc(C#N)n5)noc4c3F)CC3(C(=O)NC(=O)NC3=O)[C@H]2[C@H](C)O1 :: 2600
6. C[C@@H]1CN2c3c(cc4c(-n5ncnc5CO)noc4c3F)CC3(C(=O)NC(=O)NC3=O)[C@H]2[C@H](C)O1 :: 220
7. C[C@@H]1CN2c3c(cc4c(-n5cncn5)noc4c3Cl)CC3(C(=O)NC(=O)NC3=O)[C@H]2[C@H](C)O1 :: 156
8. C[C@@H]1CN2c3c(cc4c(-n5ncnc5CN(C)C)noc4c3F)CC3(C(=O)NC(=O)NC3=O)[C@H]2[C@H](C)O1 :: 110

====

# measurementProtocol: n-octanol/phosphate buffer partition coefficient, log D of the compound at pH 7.4 measured after 1 hr by UV-LC/MS based shake flask method
# Type: physicochemical
outcomeMeasure: logD at 1 h

1. C[C@@H]1CN2c3c(cc4c(-n5ncnc5C#N)noc4c3F)CC3(C(=O)NC(=O)NC3=O)[C@H]2[C@H](C)O1 :: 2
2. C[C@@H]1CN2c3c(cc4c(-n5cncn5)noc4c3F)CC3(C(=O)NC(=O)NC3=O)[C@H]2[C@H](C)O1 :: 1.7
3. COc1ncnn1-c1noc2c(F)c3c(cc12)CC1(C(=O)NC(=O)NC1=O)[C@H]1[C@H](C)O[C@H](C)CN31 :: 1.7
4. C[C@@H]1CN2c3c(cc4c(-n5ncnc5NCC(=O)N5CC[C@H](N(C)C)C5)noc4c3F)CC3(C(=O)NC(=O)NC3=O)[C@H]2[C@H](C)O1 :: 1.7
5. C[C@@H]1CN2c3c(cc4c(-n5ncnc5NCCN(C)C)noc4c3F)CC3(C(=O)NC(=O)NC3=O)[C@H]2[C@H](C)O1 :: 1.4
6. C[C@@H]1CN2c3c(cc4c(-n5ncnc5N(C)C)noc4c3F)CC3(C(=O)NC(=O)NC3=O)[C@H]2[C@H](C)O1 :: 1.7
7. C[C@@H]1CN2c3c(cc4c(-n5ncnc5NCC(=O)N5CC[C@@H](N(C)C)C5)noc4c3F)CC3(C(=O)NC(=O)NC3=O)[C@H]2[C@H](C)O1 :: 1.3
8. C[C@@H]1CN2c3c(cc4c(-n5ccnn5)noc4c3F)CC3(C(=O)NC(=O)NC3=O)[C@H]2[C@H](C)O1 :: 2
9. Cc1ncnn1-c1noc2c(F)c3c(cc12)CC1(C(=O)NC(=O)NC1=O)[C@H]1[C@H](C)O[C@H](C)CN31 :: 2.1

====

# Tested on: L5178Y
# measurementProtocol: Genotoxicity in mouse L5178Y cells using DAPI staining by microscopy based micronucleation assay
# Type: toxicity, cell-based
outcomeMeasure: NOAEL (µM)

1. C[C@@H]1CN2c3c(cc4c(-n5ncnc5NCC(=O)N5CC[C@H](N(C)C)C5)noc4c3F)CC3(C(=O)NC(=O)NC3=O)[C@H]2[C@H](C)O1 :: 12
2. C[C@@H]1CN2c3c(cc4c(-n5ncnc5N)noc4c3F)CC3(C(=O)NC(=O)NC3=O)[C@H]2[C@H](C)O1 :: 6
3. CO/N=C1\CN(c2nc3c(cc2F)c(=O)c(C(=O)O)cn3C2CC2)CC1CN (configuration not stated) :: 3
4. C[C@@H]1CN2c3c(cc4c(-n5ncnc5NC[C@@H](C)O)noc4c3F)CC3(C(=O)NC(=O)NC3=O)[C@H]2[C@H](C)O1 :: 12

====

# measurementProtocol: Oral bioavailability in CD-1 mouse at 10 mg/kg by LC-MS/MS analysis
# Format: ADME, organism-based
# experimentalConditions: in vivo
Below, each entry is listed alongside its reported bioavailability.
outcomeMeasure: bioavailability (%)

1) C[C@@H]1CN2c3c(cc4c(-n5cncn5)noc4c3F)CC3(C(=O)NC(=O)NC3=O)[C@H]2[C@H](C)O1 :: 37
2) COc1ncnn1-c1noc2c(F)c3c(cc12)CC1(C(=O)NC(=O)NC1=O)[C@H]1[C@H](C)O[C@H](C)CN31 :: 62
3) C[C@@H]1CN2c3c(cc4c(N5C(=O)OC[C@@H]5C)noc4c3F)CC3(C(=O)NC(=O)NC3=O)[C@H]2[C@H](C)O1 [ZOLIFLODACIN] :: 43.5

====

Below, each entry is listed alongside its reported logD at 1 h.
# measurementProtocol: n-octanol/phosphate buffer partition coefficient, log D of the compound at pH 7.4 measured after 1 hr by UV-LC/MS based shake flask method
# Format: physicochemical
outcomeMeasure: logD at 1 h

1. C[C@@H]1CN2c3c(cc4c(-n5ncnc5CN(C)C)noc4c3F)CC3(C(=O)NC(=O)NC3=O)[C@H]2[C@H](C)O1 :: 0.93
2. C[C@@H]1CN2c3c(cc4c(-n5cnnc5)noc4c3F)CC3(C(=O)NC(=O)NC3=O)[C@H]2[C@H](C)O1 :: 0.54
3. COCc1ncnn1-c1noc2c(F)c3c(cc12)CC1(C(=O)NC(=O)NC1=O)[C@H]1[C@H](C)O[C@H](C)CN31 :: 1.7
4. CNS(=O)(=O)c1cnn(-c2noc3c(F)c4c(cc23)CC2(C(=O)NC(=O)NC2=O)[C@H]2[C@H](C)O[C@H](C)CN42)c1 :: 2.2

====

# measurementProtocol: Inhibition of recombinant Escherichia coli DNA gyrase AB expressed in Escherichia coli BL21 (DE3) using relaxed pJT519 DNA as substrate preincubated for 20 mins followed by 5'-BODIPY-TMR-TTCTTCTTCT addition and measured after 1 hr by fluorescence anisotropy
outcomeMeasure: IC50 (nM)

1. C[C@@H]1CN2c3c(cc4c(-n5ncnc5[C@@H](C)O)noc4c3F)CC3(C(=O)NC(=O)NC3=O)[C@H]2[C@H](C)O1 :: 180
2. C[C@@H]1CN2c3c(cc4c(-n5ncnc5N5CCOCC5)noc4c3F)CC3(C(=O)NC(=O)NC3=O)[C@H]2[C@H](C)O1 :: 660
3. C[C@@H]1CN2c3c(cc4c(-n5ncnc5NC[C@@H](C)O)noc4c3F)CC3(C(=O)NC(=O)NC3=O)[C@H]2[C@H](C)O1 :: 160
4. C[C@@H]1CN2c3c(cc4c(-n5ncnc5CN(C)C)noc4c3F)CC3(C(=O)NC(=O)NC3=O)[C@H]2[C@H](C)O1 :: 590
